Target: Low molecular weight phosphotyrosine protein phosphatase (Homo sapiens)
Sequence (P24666 whole entry): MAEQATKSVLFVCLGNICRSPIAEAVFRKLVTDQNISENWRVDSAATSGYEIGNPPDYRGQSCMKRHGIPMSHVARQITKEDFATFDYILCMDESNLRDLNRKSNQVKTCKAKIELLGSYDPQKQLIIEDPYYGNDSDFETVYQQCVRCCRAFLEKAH
Experiment: Inhibition of recombinant human LMPTP-A using OMFP or pNPP as substrate by fluorescence assay

# smiles structure, tested on, IC50 (nM)
measured = [
    ("Nc1ncn(Cc2c(Cl)cccc2Cl)c2nc(-c3ccccc3Cl)nc1-2", "Low molecular weight phosphotyrosine protein phosphatase (Homo sapiens)", 171),
    ("Nc1ncn(Cc2ccc(Cl)cc2Cl)c2ncnc1-2", "Low molecular weight phosphotyrosine protein phosphatase (Homo sapiens)", 1020),
    ("Nc1ncn(Cc2cccc(Cl)c2)c2ncnc1-2", "Low molecular weight phosphotyrosine protein phosphatase (Homo sapiens)", 18500),
    ("Cc1ccccc1-c1nc2c(N)ncn(Cc3c(Cl)cncc3Cl)c-2n1", "Low molecular weight phosphotyrosine protein phosphatase (Homo sapiens)", 6),
    ("Nc1ncn(Cc2c(Cl)cccc2Cl)c2nc(-c3ccccc3F)nc1-2", "Low molecular weight phosphotyrosine protein phosphatase (Homo sapiens)", 147),
]
